Please provide measured melting point for the entries that follow.

Write down melting point measured for item "Cc1ccc(C=NNC(=O)c2c[nH]c3ccc(OCc4ccccc4)cc3c2=O)cc1"
330 °C (dec.)

Write down melting point measured for item "O=C(NN=Cc1ccccc1)c1c[nH]c2ccc(OCc3ccccc3)cc2c1=O"
130 °C (dec.)

Write down melting point measured for item "COc1ccccc1C=NNC(=O)c1c[nH]c2ccc(OCc3ccccc3)cc2c1=O"
299 °C (dec.)

Write down melting point measured for item "O=C(NN=Cc1ccccc1F)c1c[nH]c2ccc(OCc3ccccc3)cc2c1=O"
324 °C (dec.)

Write down melting point measured for item "COc1ccc(C=NNC(=O)c2c[nH]c3ccc(OCc4ccccc4)cc3c2=O)cc1"
154 °C (dec.)

Reference source for all entries: paper PMC7059030
